# System: WI-38 cells
# experiment_description: Viability of WI-38 cells, Alamar Blue (Assay 5)
# Format: cell-based, human
# assay_conditions: 30 μM
# Method: Human diploid lung fibroblasts (WI-38 cells) were incubated overnight in the presence of IL-1α (1 nM) and test compound (3 and 30 μM) in modified Eagle medium at pH 7.3 containing foetal bovine serum (10%) at 37° C. The supernatant was assayed by radioimmunoassay for released PGE2 and the inhibition of PGE2 by test compound calculated (Table 10). […] Living cells take up Alamar Blue and emit fluorescence when excited. […]
experimental_readout: Decrease in cell viability (%)
Could you give me the number in %? Just the number is fine.

| compound | Decrease in cell viability (%) |
| --- | --- |
| COc1cc(CCC(=O)CC(=O)c2ccc3ccccc3c2)ccc1O | 10 |
| CCC(C(=O)CCc1ccc(O)c(OC)c1)C(=O)c1ccccc1 (centres unmarked) | −5 |
| COc1cc(CCC(=O)CC(=O)c2ccccc2Cl)ccc1O | 16 |
| COc1cc(CCC(=O)CC(=O)c2ccccc2-c2ccccc2)ccc1O | 57 |

Now for the compound whose Decrease in cell viability (%) we want.
Asked: Hi! What's the reported Decrease in cell viability (%) for COc1cc(CCC(=O)CC(=O)c2ccc(C#N)cc2)ccc1O on WI-38 cells?
Given back: 6

* * *

# maps each entry to its Emax at 3 µM
# target_system: UniProt O35433
# Sequence (O35433 whole entry): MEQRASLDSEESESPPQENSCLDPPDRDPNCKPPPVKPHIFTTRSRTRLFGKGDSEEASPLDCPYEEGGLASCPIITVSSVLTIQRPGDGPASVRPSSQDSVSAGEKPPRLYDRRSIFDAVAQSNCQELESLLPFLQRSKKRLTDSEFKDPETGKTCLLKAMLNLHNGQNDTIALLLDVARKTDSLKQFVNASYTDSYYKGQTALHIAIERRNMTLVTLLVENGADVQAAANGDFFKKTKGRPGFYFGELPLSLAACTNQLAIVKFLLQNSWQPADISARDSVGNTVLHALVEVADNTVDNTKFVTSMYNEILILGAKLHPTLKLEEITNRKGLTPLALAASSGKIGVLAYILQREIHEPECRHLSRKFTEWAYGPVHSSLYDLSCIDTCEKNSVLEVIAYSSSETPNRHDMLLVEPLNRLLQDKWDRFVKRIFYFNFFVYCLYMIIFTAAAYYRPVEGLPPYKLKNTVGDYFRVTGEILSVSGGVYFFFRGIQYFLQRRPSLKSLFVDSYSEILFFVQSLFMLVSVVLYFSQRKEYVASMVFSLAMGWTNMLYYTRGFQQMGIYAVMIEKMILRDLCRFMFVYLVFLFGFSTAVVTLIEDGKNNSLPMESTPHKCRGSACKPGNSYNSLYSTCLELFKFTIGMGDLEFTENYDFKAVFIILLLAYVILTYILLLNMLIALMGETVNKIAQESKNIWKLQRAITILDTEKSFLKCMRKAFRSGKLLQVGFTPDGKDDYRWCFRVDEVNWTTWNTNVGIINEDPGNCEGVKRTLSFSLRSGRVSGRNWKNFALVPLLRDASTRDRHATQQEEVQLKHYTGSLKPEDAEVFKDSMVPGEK
# experiment_description: TRPV1 modulation in DRG neurones: CGRP release in absence and presence of capsaicin (Assay 2)
# Assay type: cell-based
# Set-up: The culture used for this experiment contained sensory neurones, Schwann cells and fibroblasts; endogenous in cells; host or cells: primary rat DRG sensory neurone culture (with Schwann cells and fibroblasts)
# assay_conditions: 20 min; test compound alone 3 μM, rat DRG sensory neurones, 20 min; read-out: CGRP release (% of capsaicin (1 μM) response)
Write the answer as a number in %, unit excluded.

| query_smiles | Emax at 3 µM (%) |
| --- | --- |
| COc1cc(CCC(=O)CC(=O)C(C)(C)C)ccc1O | 20 |
| COc1cc(CCC(=O)CC(=O)Cc2cccc3ccccc23)ccc1O | 65 |

Attention now shifts to the item below.
Asked: Suppose we examine the molecule COc1cc(CCC(=O)CC(=O)c2ccccc2C)ccc1O ; what Emax at 3 µM value has been reported?
Given back: 54
